Where do the numbers come from? From ChEMBL document CHEMBL1933051.

Test system: SMMC-7721
Experiment: Cytotoxicity against human SMMC7721 cells by MTT assay
Assay type: functional, cell-based
// NB: equality with 0.1 µg/mL counts as Criterion not met; only IC50 strictly below is Criterion met

- molecule: "CCCCCCCCCC[C@@H](O)[C@@H]1CC[C@@H]([C@@H]2CC[C@@H]([C@H](O)CCCCCCCCCC(O)CC3=CC(C)OC3=O)O2)O1 (stereo partly drawn)"
  group: "Criterion met"

**Q:** Could you please tell me whether IC50 recorded for `CCCCCCCCCC[C@@H](O)[C@H]1CC[C@H]([C@H]2CC[C@H]([C@H](O)CCCCCCCCC[C@H](O)CCC3=C[C@H](C)OC3=O)O2)O1` is less than 0.1 µg/mL?
**A:** Criterion met

**Q:** Likewise for `O=c1[nH]cc(F)c(=O)[nH]1` ?
**A:** Criterion met

**Q:** Likewise for CCCC[C@H](O)[C@H](O)[C@@H]1CC[C@@H]([C@H](O)CC[C@H](O)[C@@H]2CC[C@@H](CCCCCCCCCCCCCCC3=C[C@H](C)OC3=O)O2)O1 (relative stereo) ?
**A:** Criterion not met

**Q:** Likewise for CCCCC[C@H](O)[C@@H]1CC[C@@H]([C@H](O)CC[C@H](O)[C@@H]2CC[C@@H](CCCCCCCCCCCC[C@@H](O)CC3=C[C@H](C)OC3=O)O2)O1 (relative stereo) ?
**A:** Criterion not met

**Q:** Likewise for `CCCCCC[C@@H](O)CCC[C@H](O)[C@@H]1CC[C@@H]([C@H](O)CC[C@@H](O)[C@@H]2CC[C@@H](CCCCCCCCCC3=C[C@@H](C)OC3=O)O2)O1` ?
**A:** Criterion not met

**Q:** Likewise for `CCCCCCCCCC[C@H](O)[C@@H]1CC[C@@H]([C@H](O)CC[C@@H](O)[C@@H]2CC[C@@H](CCCCCCCCCC3=C[C@@H](C)OC3=O)O2)O1` ?
**A:** Criterion not met

**Q:** Likewise for CCCCCCCCCCCC(O)CCC[C@H](O)[C@H]1CC[C@H]([C@H]2CC[C@H]([C@H](O)CCCCCCCC3=C[C@H](C)OC3=O)O2)O1 (relative stereo) ?
**A:** Criterion met
